# Assayed system: T1, human CD3ε/δ-His (human, UniProt P07766 23-126; P04234 22-105)
# T1 construct: Bought recombinant heterodimer with His tag; also called human CD3ε/δ protein
# T1 sequence (P07766 23-126, stated change not applied, form in doubt, chain 1 of 2): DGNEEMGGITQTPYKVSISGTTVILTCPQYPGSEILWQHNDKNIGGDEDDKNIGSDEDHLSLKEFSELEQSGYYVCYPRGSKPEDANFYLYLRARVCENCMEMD
# T1 sequence (P04234 22-105, stated change not applied, form in doubt, chain 2 of 2): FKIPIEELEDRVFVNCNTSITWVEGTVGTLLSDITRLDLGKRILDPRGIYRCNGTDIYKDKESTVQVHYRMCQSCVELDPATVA
# Protocol text: ELISA, coated antigen
Quantity kind: pEC50
// pEC50: -log10(molar conc.)

Binder: 8-18.1-H1-L2 humanized antibody (antibody, human IgG1, kappa, V domains shown) VH: EVQLVQSGAEVKKPGASVKVSCKASGYTFTMNTMHWVRQAPGQRLEWMGYINPYSGYTKYNQIFKDRVTITADKSASTAYMELSSLRSEDTAVYYCLRGGEGVWGQGTTVTVSS VL: DVVMTQSPLSLPVTLGQPASISCKSSQSLLDSDGKTYLNWLQQRPGQSPRRLIYLVSELGSGVPDRFSGSGSGTDFTLKISRVEAEDVGVYYCWQGTHFPRTFGGGTKVEIKR
Quantity kind: pEC50
Assay result: 9.66

Binder: 5-7.13-H1a-L2 humanized antibody (antibody, human IgG1, kappa, V domains shown) VH: EVQLVQSGAEVKKPGASVKVSCKASGYTFTSYWVHWVRQAPGQRLEWMGNINPSDGVTNYNEKFKSRVTITVDKSASTAYMELSSLRSEDTAVYYCTRDAYGQYYFDNWGQGTTVTVSS VL: DIVMTQTPLSLPVTPGEPASISCKSSQSLLNSRTRKNYLAWYLQKPGQSPQLLIYWASVRDSGVPDRFSGSGSGTDFTLKISRVEAEDVGVYYCIQSYYLRTFGGGTKVEIKR
Quantity kind: pEC50
Assay result: 9.72

Binder: 6-35.22-H1-L1 humanized antibody (antibody, human IgG1, kappa, V domains shown) VH: EVQLVESGGGVVQPGRSLRLSCAASGFTFTDYYMSWVRQAPGKGLEWVAMSRNKAKGHTIEYSSSVKGRFTISRDNSKNTLYLQMNSLRAEDTAVYYCARDTYESYDGYFDVWGQGTTVTVSS VL: DIVMTQSPDSLAVSLGERATINCKSSQSLFNSRSRKNYLAWYQQKPGQTPKLLIYWASIRESGVPDRFSGSGSGTDFTLTISSLQAEDVAVYYCKQSYYLYTFGQGTKLEIKR
Quantity kind: pEC50
Assay result: 9.28

Binder: 7-35.6-H2-L3 humanized antibody (antibody, human IgG1, lambda, V domains shown) VH: EVQLVESGGGLVQPGGSLKLSCAASGFTFNTYAMNWVRQASGKGLEWVGRIRSKINNYATYYGDSVKDRFTISRDDSKNTFYLQMNSLKTEDTAVYYCVIHENYGSISWFAYWGQGTLVTVSS VL: ETVVTQEPSLTVSPGGTVTLTCRSSTGAVTTSNYANWVQQKPGQAFTGLIGGTNNRAPWTPARFSGSLLGGKAALTLSGVQPEDEAEYYCALWYSNHWVFGGGTKLTVLG
Quantity kind: pEC50
Assay result: 9.49

Here is the next item to consider.
Which pEC50 reading was recorded for the binder 40G5c-hIgG1 (antibody, V domains shown) VH: EVQLVQSGAEVKKPGASVKVSCKASGYTFTNYYIHWVRQAPGQGLEWIGWIYPGDGNTKYNEKFKGRATLTADTSTSTAYLELSSLRSEDTAVYYCARDSYSNYYFDYWGQGTLVTVSS VL: DIVMTQSPDSLAVSLGERATINCKSSQSLLNSRTRKNYLAWYQQKPGQPPKLLIYWASTRESGVPDRFSGSGSGTDFTLTISSLQAEDVAVYYCTQSFILRTFGQGTKVEIKR ?
9.44
